measurementTarget: human recombinant histamine H1 receptor (Homo sapiens, UniProt P35367)
Construct: expressed in transfected cells; host or cells: CHO-K1
Sequence (P35367 whole entry): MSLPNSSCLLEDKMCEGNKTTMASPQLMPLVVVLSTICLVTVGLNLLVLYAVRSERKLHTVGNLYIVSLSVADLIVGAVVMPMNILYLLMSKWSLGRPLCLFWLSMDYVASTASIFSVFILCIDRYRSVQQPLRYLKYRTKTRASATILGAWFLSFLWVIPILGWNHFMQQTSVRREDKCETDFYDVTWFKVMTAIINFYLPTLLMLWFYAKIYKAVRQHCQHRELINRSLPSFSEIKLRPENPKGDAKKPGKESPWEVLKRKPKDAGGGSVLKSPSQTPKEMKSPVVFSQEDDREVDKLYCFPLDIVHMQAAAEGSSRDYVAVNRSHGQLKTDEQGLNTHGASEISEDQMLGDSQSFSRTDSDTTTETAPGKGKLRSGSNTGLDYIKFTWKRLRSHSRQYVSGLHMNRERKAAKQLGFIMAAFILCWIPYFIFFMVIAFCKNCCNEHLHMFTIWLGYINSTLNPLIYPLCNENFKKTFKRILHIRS
experiment: Histamine H1 radioligand binding ([3H]Pyrilamine)
conditionNotes: read-out: Histamine H1 Binding (1 μM), percent inhibition of specific binding; compound at 1 μM; 1.2 nM [3H]Pyrilamine
Each entry below carries its recorded inhibition at 1 µM.
Return type: number; implicit unit %.

// known answers, use as guide
Cc1ccc2c(c1)c1c(n2-c2cccc(-c3c(C)noc3C)c2)CCN(C)C1 31
Cc1csc(-c2ccc(-n3c4c(c5cc(C)ccc53)CN(C)CC4)nc2)c1 11
CNC(=O)c1ccc(-c2cscc2-n2c3c(c4cc(C)ccc42)CN(C)CC3)cn1 20
Cc1ccc2c(c1)c1c(n2-c2ccc3nc(C)ccc3c2)CCN(C)C1 -17
Cc1ccc2c(c1)c1c(n2-c2cscc2-c2cccc3[nH]ncc23)CCN(C)C1 28
Cc1ccc2c(c1)c1c(n2-c2ccc(-c3ccc(C)nc3)cn2)CCN(C)C1 12

Dear colleague, I am looking for the recorded inhibition at 1 µM of the following compound: "Cc1ccc2c(c1)c1c(n2-c2cccc(-c3ccc(C)s3)c2)CCN(C)C1"
23

Dear colleague, I am looking for the recorded inhibition at 1 µM of the following compound: "Cc1ccc2c(c1)c1c(n2-c2ccccc2-c2cccnc2)CCN(C)C1"
72

Dear colleague, I am looking for the recorded inhibition at 1 µM of the following compound: "CC(=O)Nc1ccc(-c2ccccc2-n2c3c(c4cc(C)ccc42)CN(C)CC3)cn1"
22

Dear colleague, I am looking for the recorded inhibition at 1 µM of the following compound: "Cc1ccc2c(c1)c1c(n2-c2cccc(-c3cnc(N(C)C)nc3)c2)CCN(C)C1"
0

Dear colleague, I am looking for the recorded inhibition at 1 µM of the following compound: "Cc1ccc2c(c1)c1c(n2-c2ccccc2-c2sccc2C)CCN(C)C1"
57

Dear colleague, I am looking for the recorded inhibition at 1 µM of the following compound: "Cc1ccc2c(c1)c1c(n2-c2ccccc2-c2ccccc2)CCN(C)C1"
92

Dear colleague, I am looking for the recorded inhibition at 1 µM of the following compound: "Cc1ccc2c(c1)c1c(n2-c2ccc(-c3cccnc3)cn2)CCN(C)C1"
6

Dear colleague, I am looking for the recorded inhibition at 1 µM of the following compound: "Cc1ccc2c(c1)c1c(n2-c2cccc(-c3ccc(F)cc3)c2)CCN(C)C1"
42

Dear colleague, I am looking for the recorded inhibition at 1 µM of the following compound: "Cc1ccc2c(c1)c1c(n2-c2ccccc2N(C)C)CCN(C)C1"
99

Dear colleague, I am looking for the recorded inhibition at 1 µM of the following compound: "CN1CCc2c(c3cc(Cl)ccc3n2-c2ccsc2)C1"
90

Dear colleague, I am looking for the recorded inhibition at 1 µM of the following compound: "Cc1ccc2c(c1)c1c(n2-c2cnc3ccccc3c2)CCN(C)C1"
18

Dear colleague, I am looking for the recorded inhibition at 1 µM of the following compound: "Cc1ccc2c(c1)c1c(n2-c2ccccc2-c2cnn(C)c2)CCN(C)C1"
47

Dear colleague, I am looking for the recorded inhibition at 1 µM of the following compound: "Cc1ccc2c(c1)c1c(n2-c2cscc2-c2ccccc2)CCN(C)C1"
86

Dear colleague, I am looking for the recorded inhibition at 1 µM of the following compound: "Cc1ccc2c(c1)c1c(n2-c2cscc2-c2cnn(C)c2)CCN(C)C1"
23

Dear colleague, I am looking for the recorded inhibition at 1 µM of the following compound: "Cc1ccc2c(c1)c1c(n2-c2cccc3cnccc23)CCN(C)C1"
65

Dear colleague, I am looking for the recorded inhibition at 1 µM of the following compound: "Cc1ccc2c(c1)c1c(n2-c2cccc(-c3cc4ccccc4s3)c2)CCN(C)C1"
36

Dear colleague, I am looking for the recorded inhibition at 1 µM of the following compound: "Cc1ccc2c(c1)c1c(n2-c2ccc(-c3cnn(C)c3)cn2)CCN(C)C1"
6

====

measurementTarget: human recombinant serotonin (5-Hydroxytryptamine) 5-HT2C receptor (Homo sapiens, UniProt P28335)
Construct: expressed in transfected cells; host or cells: CHO-K1
Sequence (P28335 33-458): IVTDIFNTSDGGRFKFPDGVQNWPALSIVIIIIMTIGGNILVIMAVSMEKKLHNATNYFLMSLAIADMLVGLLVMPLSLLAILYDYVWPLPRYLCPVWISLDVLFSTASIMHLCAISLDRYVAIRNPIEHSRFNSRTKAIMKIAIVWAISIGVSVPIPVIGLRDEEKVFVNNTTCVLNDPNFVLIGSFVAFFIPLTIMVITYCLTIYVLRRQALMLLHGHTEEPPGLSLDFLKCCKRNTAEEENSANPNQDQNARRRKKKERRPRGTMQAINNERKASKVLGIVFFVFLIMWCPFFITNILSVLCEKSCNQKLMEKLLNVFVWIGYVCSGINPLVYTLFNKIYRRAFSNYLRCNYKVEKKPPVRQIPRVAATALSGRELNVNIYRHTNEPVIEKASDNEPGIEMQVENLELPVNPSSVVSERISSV
experiment: Serotonin 5-HT2C radioligand binding ([3H]Mesulergine)
conditionNotes: compound at 0.1 μM; read-out: Inhibition of ligand binding, Serotonin 5-HT2C (percent inhibition of specific binding)
Each entry below carries its recorded inhibition at 0.1 µM.
Return type: number; implicit unit %.

// known answers, use as guide
Cc1ccc2c(c1)c1c(n2-c2ccc(C)nc2)CCN(C)C1 26
Cc1ccc2c(c1)c1c(n2-c2ccc(C(F)(F)F)nc2)CCN(C)C1 73
CC(=O)Nc1ccc(-c2cccc(-n3c4c(c5cc(C)ccc53)CN(C)CC4)c2)cn1 26

Dear colleague, I am looking for the recorded inhibition at 0.1 µM of the following molecule: "Cc1ccc2c(c1)c1c(n2-c2cncn2C)CCN(C)C1"
8

Dear colleague, I am looking for the recorded inhibition at 0.1 µM of the following molecule: "Cc1ccc2c(c1)c1c(n2-c2ccccc2-c2cccc3[nH]ncc23)CCN(C)C1"
82

Dear colleague, I am looking for the recorded inhibition at 0.1 µM of the following molecule: "Cc1ccc2c(c1)c1c(n2-c2ccc(-c3cnn(C)c3)cn2)CCN(C)C1"
96

Dear colleague, I am looking for the recorded inhibition at 0.1 µM of the following molecule: "Cc1ccc2c(c1)c1c(n2-c2ccccc2-c2cccnc2)CCN(C)C1"
73

Dear colleague, I am looking for the recorded inhibition at 0.1 µM of the following molecule: "CNC(=O)c1ccc(-c2ccccc2-n2c3c(c4cc(C)ccc42)CN(C)CC3)cn1"
15

====

Each entry below carries its recorded inhibition at 0.1 µM.
measurementTarget: human recombinant serotonin (5-Hydroxytryptamine) 5-HT7 receptor (Homo sapiens, UniProt P34969)
Construct: expressed in transfected cells; host or cells: CHO
Sequence (P34969 whole entry): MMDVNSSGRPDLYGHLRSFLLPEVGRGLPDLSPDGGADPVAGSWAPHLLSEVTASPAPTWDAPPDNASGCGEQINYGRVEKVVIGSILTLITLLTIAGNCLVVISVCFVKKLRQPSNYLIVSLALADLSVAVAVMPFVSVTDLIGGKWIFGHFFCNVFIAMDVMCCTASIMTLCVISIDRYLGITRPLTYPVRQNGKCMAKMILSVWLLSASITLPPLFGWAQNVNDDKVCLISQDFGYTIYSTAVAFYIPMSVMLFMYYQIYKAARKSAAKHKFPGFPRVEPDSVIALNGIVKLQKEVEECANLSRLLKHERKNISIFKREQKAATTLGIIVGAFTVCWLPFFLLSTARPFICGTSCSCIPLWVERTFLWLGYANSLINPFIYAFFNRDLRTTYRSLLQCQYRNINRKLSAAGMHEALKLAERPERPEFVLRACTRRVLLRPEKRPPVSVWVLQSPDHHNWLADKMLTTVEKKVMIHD
experiment: Serotonin 5-HT7 radioligand binding ([3H]LSD)
conditionNotes: compound at 0.1 μM; read-out: Inhibition of ligand binding, Serotonin 5-HT7 (percent inhibition of specific binding)
Return type: number; implicit unit %.

compound	reading
Cc1ccc2c(c1)c1c(n2-c2cccc(-c3cccn3C)c2)CCN(C)C1 [Compound No. 69]	25
Cc1ccc2c(c1)c1c(n2-c2ccccc2-c2ccc3c(ccn3C)c2)CCN(C)C1 [Compound No. 85]	26
Cc1ccc2c(c1)c1c(n2-c2cscc2-c2c(C)noc2C)CCN(C)C1 [Compound 62]	48
Cc1ccc2c(c1)c1c(n2-c2ccccc2-c2sccc2C)CCN(C)C1 [Compound No. 102]	34

Okay, next one:
Dear colleague, I am looking for the recorded inhibition at 0.1 µM of the following compound: Cc1ccc2c(c1)c1c(n2-c2cscc2C(=O)N(C)C)CCN(C)C1 [Compound No. 152]
15

====

measurementTarget: human recombinant serotonin (5-Hydroxytryptamine) 5-HT5A receptor (Homo sapiens, UniProt P47898)
Construct: expressed in transfected cells; host or cells: CHO-K1
Sequence (P47898 whole entry): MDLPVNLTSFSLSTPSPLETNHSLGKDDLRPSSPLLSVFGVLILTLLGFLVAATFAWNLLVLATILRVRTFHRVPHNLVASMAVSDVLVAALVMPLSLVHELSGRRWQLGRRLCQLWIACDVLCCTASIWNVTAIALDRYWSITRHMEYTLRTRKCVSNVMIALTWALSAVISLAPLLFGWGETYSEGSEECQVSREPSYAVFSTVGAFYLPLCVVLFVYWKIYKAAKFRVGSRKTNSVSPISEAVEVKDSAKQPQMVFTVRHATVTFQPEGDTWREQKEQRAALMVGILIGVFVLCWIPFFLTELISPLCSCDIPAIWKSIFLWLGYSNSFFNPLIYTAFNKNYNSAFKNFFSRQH
experiment: Serotonin 5-HT5A radioligand binding ([3H]LSD)
conditionNotes: compound at 0.1 μM; read-out: Inhibition of ligand binding, Serotonin 5-HT5A (percent inhibition of specific binding)
readoutName: inhibition at 0.1 µM (%)
Return type: number; implicit unit %.

// known answers, use as guide
Cc1ccc2c(c1)c1c(n2-c2cscc2-c2ccc(F)nc2)CCN(C)C1 66
Cc1cc(C)c2c(c1)c1c(n2-c2cccc3ncccc23)CCN(C)C1 29
Cc1ccc2c(c1)c1c(n2-c2cccc(-c3cc4ccccc4s3)c2)CCN(C)C1 5

Dear colleague, I am looking for the recorded inhibition at 0.1 µM of the following molecule: "CNC(=O)c1ccc(-c2ccccc2-n2c3c(c4cc(C)ccc42)CN(C)CC3)cc1"
14

Dear colleague, I am looking for the recorded inhibition at 0.1 µM of the following molecule: "Cc1ccc2c(c1)c1c(n2-c2ccccc2-c2cnc(N(C)C)nc2)CCN(C)C1"
8

Dear colleague, I am looking for the recorded inhibition at 0.1 µM of the following molecule: "Cc1ccc2c(c1)c1c(n2-c2cccc(-c3ccc(F)cc3)c2)CCN(C)C1"
24

Dear colleague, I am looking for the recorded inhibition at 0.1 µM of the following molecule: "Cc1csc(-c2cccc(-n3c4c(c5cc(C)ccc53)CN(C)CC4)c2)c1"
25

The reported measurements were obtained from patent US9187471B2.
